Target: GST-hLGK1 (GK) (Homo sapiens)
Construct: GST (N)
Sequence (P35557 1-464 isoform P35557-3): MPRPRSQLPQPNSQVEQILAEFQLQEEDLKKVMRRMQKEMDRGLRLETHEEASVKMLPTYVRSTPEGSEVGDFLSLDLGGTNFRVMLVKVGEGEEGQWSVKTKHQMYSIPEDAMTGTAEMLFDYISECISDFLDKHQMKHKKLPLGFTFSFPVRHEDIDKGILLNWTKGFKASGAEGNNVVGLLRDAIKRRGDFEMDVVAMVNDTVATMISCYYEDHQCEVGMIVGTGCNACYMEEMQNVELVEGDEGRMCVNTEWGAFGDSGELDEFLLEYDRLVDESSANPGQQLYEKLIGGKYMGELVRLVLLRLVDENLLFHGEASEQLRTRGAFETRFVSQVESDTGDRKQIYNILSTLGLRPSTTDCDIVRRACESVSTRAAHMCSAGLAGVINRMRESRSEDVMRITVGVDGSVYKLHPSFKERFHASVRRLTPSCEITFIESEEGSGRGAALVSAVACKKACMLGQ
Assay: GK activation assay with GST-hLGK1 and Mant-ATP, capillary electrophoresis readout
Conditions: GST-hLGK1 6 μg/mL, 50 μM Mant-ATP, 25 mM D-glucose solution (10 μL) added, 37° C. for 60 min; concentration for 50% of the maximum activity value; read-out: EC50 of Exemplified Compounds against GK
pEC50: −log10 of the molar value.
measurement type: pEC50

Answered cases to consult:
CC(C)Oc1ccc2[nH]nc(Nc3nccs3)c2c1 [Compound 34] : 5.77
O=[N+]([O-])c1ccc2[nH]nc(Nc3nccs3)c2c1 [Compound 20] : 5.18
COCC(C)Oc1ccc2[nH]nc(Nc3nccs3)c2c1 (stereo not drawn) [Compound 35] : 5.62
CC(C)c1ccc2[nH]nc(Nc3nccs3)c2c1 [Compound 33] : 5.54

(A) Cn1nc(Nc2nccs2)c2cc(C(F)(F)F)ccc21 [Compound 9]
(B) CC(C)Cc1ccc2[nH]nc(Nc3nccs3)c2c1 [Compound 29]
(C) CC(=O)c1ccc2[nH]nc(Nc3nccs3)c2c1 [Compound 25]
(D) CC(=O)Nc1ccc2[nH]nc(Nc3nccs3)c2c1 [Compound 22]
(E) Brc1ccc2[nH]nc(Nc3nccs3)c2c1 [Compound 7]
Query: Ranking field: pEC50; order: falling. Record the ranking as a list of labels in the requested order.
Response: B, A, E, C, D
